Test system: recombinant human Syk (GST-hSyk fusion protein) (Homo sapiens)
Construct: purchased Carna Biosciences 08-176
Method description: Homogeneous Time-Resolved Fluorescence (HTRF) assay for the recombinant human Syk enzyme
Format: biochemical
Condition parameters: IC50 class; 10-dose titration, 25 μM ATP; read-out: rhSYK Activity
Measurement type: IC50

In [3]: df
Out[3]:
                                    molecule      data_value
 0  Cc1cc(Nc2cc(C(F)F)ccn2)nc(-c2cnn(C(C)C3CNC(=O)C3)c2)c1 (stereo not shown) [Example 1.66]        ≤ 100 nM
 1  Cc1cc(Nc2nccc(C(F)(F)F)n2)cc(-c2cnn(CC3(O)CCOC(C)(C)C3)c2)c1 (stereo not shown) [Example 12.10]        ≤ 100 nM
 2  Cc1cc(Nc2nccc(C)n2)cc(-c2cnn(CC3OC(=O)NC3C)c2)c1 (single isomer, unassigned) [Example 23.8]        ≤ 100 nM
 3  Cc1cc(Nc2nccc(C(F)(F)F)n2)cc(-c2cnn(CC(=O)N3CCOCC3(C)C)c2)c1  100 to 1000 nM
 4  Cc1cc(Nc2nccc(C(F)(F)F)n2)cc(-c2cnn(CC(O)CO)c2)c1 (racemic)        ≤ 100 nM
 5  Cc1cc(Nc2nccc(C(F)F)n2)cc(-c2cnn(C3CCCC(O)C3O)c2)c1 (single isomer, unassigned) [Example 10.7]        ≤ 100 nM
 6  Cc1cc(Nc2nccc(C3CC3)n2)cc(-c2cnn(C[C@H](O)C(=O)O)c2)c1        ≤ 100 nM
 7  Cc1cc(Nc2nccc(C(F)(F)F)n2)cc(-c2cnn(CC3CCCO3)c2)c1 (stereo not shown)        ≤ 100 nM
 8  Cc1cc(Nc2nccc(C(F)(F)F)n2)cc(-c2ccnn2C(C)C)c1  100 to 1000 nM
 9  Cc1cc(Nc2nccc(C(F)(F)F)n2)cc(-c2cn[nH]c2)c1        ≤ 100 nM
10  COc1nc(Nc2cc(C)cc(-c3cnn(CC4CNC(=O)O4)c3)c2)ncc1Cl (stereo not shown) [Example 2.23]        ≤ 100 nM
11  Cc1cc(Nc2nccc(C(C)(F)F)n2)cc(-c2cnn(CC3CNC(=O)O3)c2)c1 (stereo not shown) [Example 3.125]        ≤ 100 nM
12  Cc1cc(Nc2nccc(C(F)F)n2)cc(-c2cnn(CC3(O)CCC3)c2)c1        ≤ 100 nM
13  Cc1cc(Nc2cc(C(F)F)ccn2)nc(-c2cnn(CC3CNC(=O)O3)c2)c1 (stereo not shown) [Example 3.81]        ≤ 100 nM
14  Cc1cc(Nc2nccc(C(F)F)n2)cc(-c2cnn(CCNS(=O)(=O)N3CCOCC3)c2)c1        ≤ 100 nM
15  Cc1cc(Nc2nccc(C(C)(F)F)n2)cc(-c2cnn(CC3CNC(=O)O3)c2)c1 (stereo not shown) [Example 3.126]        ≤ 100 nM
16  Cc1cc(Nc2nccc(C(C)(F)F)n2)cc(-c2cnn(CC3OC(=O)NC3(C)C)c2)c1 (stereo not shown) [Example 3.101]        ≤ 100 nM
17  Cc1cc(Nc2nccc(C3CC3)n2)cc(-c2cnn(C[C@@H](O)C(=O)O)c2)c1        ≤ 100 nM
18  Cc1cc(Nc2cc(C(F)(F)F)ccn2)nc(-c2cnn(CCC(C)C)c2)c1        ≤ 100 nM
19  Cc1cc(Nc2nccc(C)n2)cc(-c2cnn(CC(C)(O)CO)c2)c1 (single isomer, unassigned) [Example 25.2]        ≤ 100 nM
20  CCC(C(=O)OC)n1cc(-c2cc(C)cc(Nc3nccc(C(F)(F)F)n3)c2)cn1 (stereo not shown)        ≤ 100 nM
21  Cc1cc(Nc2nccc(C(F)(F)F)n2)cc(-c2cnn(CC(O)c3ccc(C(N)=O)cc3)c2)c1 (stereo not shown) [Example 8.12]        ≤ 100 nM
22  Cc1cc(Nc2nccc(OCCO)n2)cc(-c2cnn(CCC(N)=O)c2)c1        ≤ 100 nM
23  CNC(=O)[C@@H](O)Cn1cc(-c2cc(C)cc(Nc3nccc(C(F)(F)F)n3)c2)cn1        ≤ 100 nM
24  Cc1cc(Nc2nccc(C(F)F)n2)cc(-c2cnn(C3CCCC(O)C3O)c2)c1 (single isomer, unassigned) [Example 10.5]        ≤ 100 nM
25  COCCOC(=O)NC(C)(C)Cn1cc(-c2cc(C)cc(Nc3nccc(C(F)F)n3)c2)cn1        ≤ 100 nM
26  O=C(O)C1CCC(n2cc(-c3cc(Cl)cc(Nc4nccc(C(F)(F)F)n4)c3)cn2)CC1 (stereo not shown) [Example 1.61]        ≤ 100 nM
27  Cc1cc(Nc2nccc(C(F)(F)F)n2)cc(-c2cnn3cccnc23)c1  100 to 1000 nM
28  Cc1cc(Nc2nccc(C(F)(F)F)n2)cc(-n2cc(C3(O)CCC(C(=O)O)C(C)(C)C3)cn2)c1 (stereo not shown) [Example 19.14]  100 to 1000 nM
29  COc1ccnc(Nc2cc(C)cc(-c3cnn(C[C@H](O)C(=O)O)c3)c2)n1        ≤ 100 nM
30  CCOC(=O)CCn1cc(-c2cc(C)cc(Nc3cc(C4CC4)ccn3)n2)cn1        ≤ 100 nM
